# assayedSystem: T1, monovalent, heterodimeric human ICOS-Fc (human)
# T1 construct: Make-up of the heterodimer is not described; also called Monomeric hICOS; monomeric form of human ICOS; not shown: The human IgG1 Fc fused to ICOS, and the partner Fc chain of the heterodimer
# T1 chain: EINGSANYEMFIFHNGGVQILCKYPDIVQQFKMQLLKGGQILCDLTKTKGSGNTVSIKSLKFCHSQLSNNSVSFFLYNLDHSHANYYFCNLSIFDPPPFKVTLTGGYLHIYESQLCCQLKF
# assayRemarks: BLI (Octet RED96), IgG vs monovalent heterodimeric ICOS-Fc
Assignment: determine reported Kd for the given binders.
Reply with just the number (in nM).

Ask: Provide measured Kd value, entry: 16G10 (antibody, V domains shown, Armenian hamster monoclonal tested as IgG; also called hamster anti-ICOS 16G10) VH: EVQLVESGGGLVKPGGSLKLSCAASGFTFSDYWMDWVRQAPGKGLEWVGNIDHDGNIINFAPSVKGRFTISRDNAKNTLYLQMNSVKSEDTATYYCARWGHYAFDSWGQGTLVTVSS VL: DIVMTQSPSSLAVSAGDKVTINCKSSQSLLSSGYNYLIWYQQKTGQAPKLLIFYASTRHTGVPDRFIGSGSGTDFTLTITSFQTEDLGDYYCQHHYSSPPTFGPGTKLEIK
Result: 4.37

Ask: Provide measured Kd value, entry: 35A9 (antibody, V domains shown, Armenian hamster monoclonal tested as IgG; also called hamster anti-ICOS 35A9) VH: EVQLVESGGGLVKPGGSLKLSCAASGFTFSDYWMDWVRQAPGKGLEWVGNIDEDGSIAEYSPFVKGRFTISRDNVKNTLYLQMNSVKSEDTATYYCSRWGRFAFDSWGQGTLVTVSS VL: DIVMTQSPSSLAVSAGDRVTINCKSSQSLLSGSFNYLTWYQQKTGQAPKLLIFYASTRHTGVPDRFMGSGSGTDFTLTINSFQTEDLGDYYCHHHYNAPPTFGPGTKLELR
Result: 2.45

Ask: Provide one value: measured Kd of 37A10 (antibody, V domains shown, Armenian hamster monoclonal tested as IgG; also called hamster anti-ICOS 37A10) VH: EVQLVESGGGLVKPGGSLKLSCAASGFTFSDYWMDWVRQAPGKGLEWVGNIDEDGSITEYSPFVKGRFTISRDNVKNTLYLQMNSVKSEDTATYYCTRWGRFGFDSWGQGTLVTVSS VL: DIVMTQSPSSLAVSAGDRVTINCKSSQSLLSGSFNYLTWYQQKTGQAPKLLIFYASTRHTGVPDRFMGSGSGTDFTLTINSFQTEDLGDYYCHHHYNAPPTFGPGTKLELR
Result: 3.18

Ask: Quickly give me recorded Kd for 36E10 (antibody, V domains shown, Armenian hamster monoclonal tested as IgG; also called hamster anti-ICOS 36E10) VH: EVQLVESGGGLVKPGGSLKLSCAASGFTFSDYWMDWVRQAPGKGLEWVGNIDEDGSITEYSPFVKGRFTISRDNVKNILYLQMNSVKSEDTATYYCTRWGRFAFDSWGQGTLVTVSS VL: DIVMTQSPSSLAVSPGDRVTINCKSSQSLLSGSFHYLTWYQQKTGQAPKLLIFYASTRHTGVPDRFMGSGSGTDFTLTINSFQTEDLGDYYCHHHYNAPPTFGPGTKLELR
Result: 1.59

All values here come from patent US20180371091A1.
